# system-tested: P450BM3 variant V-H10(R47C,A87I) (Priestia megaterium, UniProt P14779, A181T/A185V/A198V/A291V/E253G/F206C/F88I/H237Q/L354V/P143S/R256S/R48C/S227R/T176I/V79N)
# Sequence (P14779 whole entry R48C/V79N/F88I/P143S/T176I/A181T/A185V/A198V/F206C/S227R/H237Q/E253G/R256S/A291V/L354V): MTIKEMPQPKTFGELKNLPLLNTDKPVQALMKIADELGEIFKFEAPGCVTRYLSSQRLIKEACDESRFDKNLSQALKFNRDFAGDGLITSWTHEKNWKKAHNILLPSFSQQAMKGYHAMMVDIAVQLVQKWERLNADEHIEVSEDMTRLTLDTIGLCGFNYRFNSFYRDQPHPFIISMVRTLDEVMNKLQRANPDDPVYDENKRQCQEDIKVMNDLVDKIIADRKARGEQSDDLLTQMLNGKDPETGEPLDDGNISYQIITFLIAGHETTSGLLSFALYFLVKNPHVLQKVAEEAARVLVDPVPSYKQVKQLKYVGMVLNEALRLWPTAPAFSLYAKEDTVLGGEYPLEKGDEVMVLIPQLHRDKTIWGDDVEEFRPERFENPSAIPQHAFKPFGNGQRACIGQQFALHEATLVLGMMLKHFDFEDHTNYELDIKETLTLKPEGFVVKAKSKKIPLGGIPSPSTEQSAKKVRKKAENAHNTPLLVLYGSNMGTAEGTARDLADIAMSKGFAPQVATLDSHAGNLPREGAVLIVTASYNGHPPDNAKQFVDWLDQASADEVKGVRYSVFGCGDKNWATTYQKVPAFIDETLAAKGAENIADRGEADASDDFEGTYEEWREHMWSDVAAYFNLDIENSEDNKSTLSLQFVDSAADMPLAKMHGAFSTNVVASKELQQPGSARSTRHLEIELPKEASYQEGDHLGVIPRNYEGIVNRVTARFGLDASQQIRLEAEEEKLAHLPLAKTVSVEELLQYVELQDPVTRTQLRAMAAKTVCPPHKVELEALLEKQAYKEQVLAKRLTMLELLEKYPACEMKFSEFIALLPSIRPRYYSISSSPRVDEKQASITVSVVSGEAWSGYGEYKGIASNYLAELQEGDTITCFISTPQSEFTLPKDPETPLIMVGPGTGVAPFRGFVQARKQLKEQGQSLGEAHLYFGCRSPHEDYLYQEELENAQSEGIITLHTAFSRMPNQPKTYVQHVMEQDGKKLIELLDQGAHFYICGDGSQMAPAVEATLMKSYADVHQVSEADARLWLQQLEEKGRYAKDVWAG
# assay-overview: Heme spin shift binding of MCL to P450 variant V-H10
# Parameters: species or system Bacillus megaterium
# experimental-parameters: 50 mM KPi pH 8.0, room temperature
value-kind: Kd (µM)
The figure you give is taken to be in µM; do not add the unit.

The reported value for C=C1C(=O)O[C@H]2[C@H]1CCC(C)=C1CC[C@@](C)(O)[C@@H]12 [MCL, micheliolide] in terms of Kd is 365
